Tested on: OSM-induced sPAP release, HepG2 B6 cells
Test: HepG2 B6: OSM-induced sPAP assay
Format: cell-based, human
Conditions: Homo sapiens, HepG2; 2 ng/ml OSM, 20 hours; read-out: IC50, inhibition of OSM-induced sPAP release
Readout Kind: IC50 (nM)
Please respond with the number in nM and leave the unit unwritten.

GET /values?readout=IC50&item= O=C(Nc1ncnc2[nH]ncc12)c1ccccc1 [GW 340442X] 300
